- assay_protocol: Radioactive metabolites in plasma, urine and feces after single oral dose of [14C] compound (I) to monkeys
- Type: in vivo, cynomolgus monkey
- measurement_parameters: oral 10 mg/kg, pooled fecal extracts 0-168 hr
reported_property: Metabolites in Feces (0-168 hr), Monkey, % Rad (%)

Worked examples follow.
| compound | unit_of_measurement | numeric_result |
| --- | --- | --- |
| Cc1nc(Nc2ncc(C(=O)Nc3c(C)cccc3Cl)s2)cc(N2CCNCC2)n1 [M4 (II)] | % | 3.8 |
| Cc1nc(Nc2ncc(C(=O)Nc3c(C)cccc3Cl)s2)cc(N2CCN(CC(=O)O)CC2)n1 [M6 (IV)] | % | 18.2 |

(P) Cc1nc(Nc2ncc(C(=O)Nc3c(C)cccc3Cl)s2)cc(N2CCN(CCO)CC2)n1 [Parent (I), reference compound]
(Q) Cc1nc(Nc2ncc(C(=O)Nc3c(C)cc(O)cc3Cl)s2)cc(N2CCN(CCO)CC2)n1 [M20 (V)]
(R) Cc1nc(Nc2ncc(C(=O)Nc3c(Cl)cccc3CO)s2)cc(N2CCN(CCO)CC2)n1 [M24 (VI)]
Lookup: Could you please sort these 3 entries by Metabolites in Feces (0-168 hr), Monkey, % Rad from high to low? # output: labels, in the requested order
Found: P, Q, R

====

- assay_protocol: Radioactive metabolites in plasma, urine and feces after single oral dose of [14C] compound (I) to humans
- Format: in vivo, human
- measurement_parameters: oral 100-mg [14C] compound (I), plasma 2 h
reported_property: % Distribution of radioactive metabolites in pooled plasma, Human (2 h) (%)

| molecule | numeric_result |
| --- | --- |
| Cc1nc(Nc2ncc(C(=O)Nc3c(C)cccc3Cl)s2)cc(N2CCN(CC(=O)O)CC2)n1 | 3.6 |

(P) Cc1nc(Nc2ncc(C(=O)Nc3c(Cl)cccc3CO)s2)cc(N2CCN(CCO)CC2)n1
(Q) Cc1nc(Nc2ncc(C(=O)Nc3c(C)cccc3Cl)s2)cc(N2CCN(CCO)CC2)n1 [Parent (I), reference compound]
(R) Cc1nc(Nc2ncc(C(=O)Nc3c(C)cc(O)cc3Cl)s2)cc(N2CCN(CCO)CC2)n1
(S) Cc1nc(Nc2ncc(C(=O)Nc3c(C)cccc3Cl)s2)cc(N2CC[N+]([O-])(CCO)CC2)n1
Lookup: Please put the entries in order of rising % Distribution of radioactive metabolites in pooled plasma, Human (2 h). To answer, arrange all of the labels according to the requested order.
Found: P, S, R, Q

====

- assay_protocol: Metabolite profile of [14C] compound (I) in rat hepatocyte incubations
- Format: in vitro ADME, Sprague-Dawley rat
- measurement_parameters: (Ia) 20 μM, 3 h, 37° C., ~2 million cells/mL; relative distribution in radiochromatographic profile
reported_property: % of Radioactivity in Hepatocytes, Rat (%)

| sample_smiles | unit_of_measurement | % of Radioactivity in Hepatocytes, Rat |
| --- | --- | --- |
| Cc1nc(Nc2ncc(C(=O)Nc3c(C)cc(O)cc3Cl)s2)cc(N2CCN(CCO)CC2)n1 | % | 1.1 |

(a) Cc1nc(Nc2ncc(C(=O)Nc3c(C)cccc3Cl)s2)cc(N2CCNCC2)n1
(b) Cc1nc(Nc2ncc(C(=O)Nc3c(Cl)cccc3CO)s2)cc(N2CCN(CCO)CC2)n1
(c) Cc1nc(Nc2ncc(C(=O)Nc3c(C)cccc3Cl)s2)cc(N2CCN(CC(=O)O)CC2)n1
Lookup: Task field, ranking: reported % of Radioactivity in Hepatocytes, Rat, descending order. Would you mind listing the labels in the order asked for?
Found: c, a, b
(c: 4.9%, a: 1.6%, b: 1.1%)
